FYI, the data here is from ChEMBL document CHEMBL3627634.

Target: Beta-glucuronidase (Bos taurus)
Assay: Inhibition of bovine liver beta-glucuronidase using p-nitrophenyl-beta-D-glucuronide as substrate assessed as p-nitrophenol formation after 30 mins by multiplate reader analysis
Details: read-out: IC50
In this section, each of the molecules is paired with its reported pIC50.
To interpret pIC50, take it as minus log10 of a concentration measured in moles per litre.

O=C(N/N=C/c1ccccc1O)c1ccc(-c2nnc(-c3ccccc3O)o2)cc1    4.04
O=C(N/N=C/c1cc(O)c(O)cc1O)c1ccc(-c2nnc(-c3ccccc3O)o2)cc1    4.67
COc1ccc(O)c(/C=N/NC(=O)c2ccc(-c3nnc(-c4ccccc4O)o3)cc2)c1    4.05
O=C(N/N=C/c1cccc([N+](=O)[O-])c1)c1ccc(-c2nnc(-c3ccccc3O)o2)cc1    4.19
O=C(N/N=C/c1ccc(O)cc1)c1ccc(-c2nnc(-c3ccccc3O)o2)cc1    4.73

Q) Reported pIC50, molecule O=C(N/N=C/c1ccccn1)c1ccc(-c2nnc(-c3ccccc3O)o2)cc1 : ____
A) 4.37

---

Target: Beta-glucuronidase (Bos taurus)
Experiment: Inhibition of bovine liver beta-glucuronidase using p-nitrophenyl-beta-D-glucuronide as substrate assessed as p-nitrophenol formation after 30 mins by multiplate reader analysis
Conditions: read-out: IC50
// assign satisfied if IC50 falls strictly below 30 µM, else not satisfied (ties count as not satisfied)

For orientation, consider the following solved cases.
O=C(N/N=C/c1ccc(Cl)cc1)c1ccc(-c2nnc(-c3ccccc3O)o2)cc1    not satisfied
COc1ccc(/C=N/NC(=O)c2ccc(-c3nnc(-c4ccccc4O)o3)cc2)cc1O    satisfied
O=C(N/N=C/c1ccc([N+](=O)[O-])cc1)c1ccc(-c2nnc(-c3ccccc3O)o2)cc1    not satisfied

Would you kindly look at the next entry?
Q) Answer whether the compound O=C(N/N=C/c1cccc(O)c1)c1ccc(-c2nnc(-c3ccccc3O)o2)cc1 has IC50 strictly less than 30 µM
A) not satisfied

---

Below, each of the molecules is paired with its reported pIC50 value.
Molecular target: Beta-glucuronidase (Bos taurus, UniProt A3KMY8)
Sequence (A3KMY8 whole entry): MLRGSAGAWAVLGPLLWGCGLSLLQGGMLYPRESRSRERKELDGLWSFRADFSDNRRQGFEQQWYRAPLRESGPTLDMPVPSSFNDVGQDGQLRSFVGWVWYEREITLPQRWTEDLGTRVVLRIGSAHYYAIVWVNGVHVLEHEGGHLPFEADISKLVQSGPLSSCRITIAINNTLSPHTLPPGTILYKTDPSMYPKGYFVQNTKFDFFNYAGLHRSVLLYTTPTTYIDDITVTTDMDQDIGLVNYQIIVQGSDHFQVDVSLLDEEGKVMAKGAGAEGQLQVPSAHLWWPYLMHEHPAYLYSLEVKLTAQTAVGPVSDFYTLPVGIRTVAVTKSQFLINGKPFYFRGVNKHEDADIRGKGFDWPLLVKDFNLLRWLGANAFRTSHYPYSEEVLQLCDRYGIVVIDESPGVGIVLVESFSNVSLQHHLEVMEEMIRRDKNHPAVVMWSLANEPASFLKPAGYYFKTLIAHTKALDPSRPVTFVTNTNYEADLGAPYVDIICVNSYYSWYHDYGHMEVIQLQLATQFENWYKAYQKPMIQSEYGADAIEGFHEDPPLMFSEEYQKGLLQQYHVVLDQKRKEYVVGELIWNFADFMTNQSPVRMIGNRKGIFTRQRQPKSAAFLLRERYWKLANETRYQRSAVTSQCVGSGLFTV
Assay: Inhibition of bovine liver beta-glucuronidase using p-nitrophenyl-beta-D-glucuronide as substrate assessed as p-nitrophenol formation after 30 mins by multiplate reader analysis
Conditions: read-out: IC50
Reminder that pIC50 means the negative base-10 logarithm of the concentration expressed in mol/L.

O=C(N/N=C/c1ccc(O)c(O)c1)c1ccc(-c2nnc(-c3ccccc3O)o2)cc1    4.54
O=C(N/N=C/c1cc(O)ccc1O)c1ccc(-c2nnc(-c3ccccc3O)o2)cc1    4.82
O=C(N/N=C/c1c(O)cc(O)cc1O)c1ccc(-c2nnc(-c3ccccc3O)o2)cc1    4.09

Proceed to the following item.
Q) Need pIC50, item O=C(N/N=C/c1ccccc1F)c1ccc(-c2nnc(-c3ccccc3O)o2)cc1
A) 3.97
